Hey, just so you know, these numbers are from ChEMBL document CHEMBL1129993.

measurement target: Muscarinic acetylcholine receptor M1 (Mus musculus, UniProt P12657)
Sequence (P12657 whole entry): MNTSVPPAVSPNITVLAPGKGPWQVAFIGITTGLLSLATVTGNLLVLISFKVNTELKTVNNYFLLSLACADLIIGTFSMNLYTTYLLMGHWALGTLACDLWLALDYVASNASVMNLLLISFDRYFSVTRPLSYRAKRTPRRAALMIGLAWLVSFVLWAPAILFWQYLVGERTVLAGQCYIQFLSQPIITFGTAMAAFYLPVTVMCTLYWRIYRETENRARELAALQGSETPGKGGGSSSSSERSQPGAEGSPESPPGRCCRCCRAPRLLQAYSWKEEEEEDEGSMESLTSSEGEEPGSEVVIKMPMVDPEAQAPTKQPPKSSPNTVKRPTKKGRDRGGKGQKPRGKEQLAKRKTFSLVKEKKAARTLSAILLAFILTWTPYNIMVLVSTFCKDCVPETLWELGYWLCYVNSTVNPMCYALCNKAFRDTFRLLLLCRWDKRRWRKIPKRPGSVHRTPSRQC
experiment: biochemical
metric name: Ki (nM)
Response body: numeric value in nM, unit text excluded.

// solved cases for Ki follow
[
  {
    "molecule": "C#CCOC(=O)C1CN=CNC1 (configuration not stated)",
    "Ki, nM": 2.88
  },
  {
    "molecule": "COC(=O)C1CN=CNC1 (configuration not stated)",
    "Ki, nM": 23.6
  }
]

Ask | Need Ki, item CCCC#Cc1noc(C2CN=CNC2)n1 (configuration not stated)
Reply | 17.4

Ask | Need Ki, item `Cc1noc(C2=CCCN(C)C2)n1`
Reply | 0.589

Ask | Need Ki, item Cc1noc(C2CN=CNC2)n1 (configuration not stated)
Reply | 2.31

Ask | Need Ki, item CC#CCOC(=O)C1CN=CNC1 (configuration not stated)
Reply | 9.01

Ask | Need Ki, item C#CCCOC(=O)C1CN=CNC1 (configuration not stated)
Reply | 15.5
